# Tgt: T1, human CTLA-4 (human, UniProt P16410 36-223)
# T1 construct: also called huCTLA4
# Procedure Details: flow cytometry, CHO cells stably expressing CTLA4
Value Type: Fold change to WT CD80 (fold)

binder="CD80 IgV-Fc T13R/Q33L/E35D/M47V/T62S/V68M/L85M (Fc fusion, not shown: a dimerising Fc or GST) VIHVTKEVKEVARLSCGHNVSVEELAQTRIYWLKDKKMVLTMMSGDVNIWPEYKNRTIFDISNNLSIMILALRPSDEGTYECVVMKYEKDAFKREHLAEVTLSVKAD" value_type="Fold change to WT CD80" units_symbol=fold reported_result=0.1
binder="CD80 IgV-Fc T13R/Q33R/E35D/M47L/V68M (Fc fusion, not shown: a dimerising Fc or GST) VIHVTKEVKEVARLSCGHNVSVEELAQTRIYWRKDKKMVLTMMSGDLNIWPEYKNRTIFDITNNLSIMILALRPSDEGTYECVVLKYEKDAFKREHLAEVTLSVKAD" value_type="Fold change to WT CD80" units_symbol=fold reported_result=11.8
binder="CD80 WT IgV-Fc (Fc fusion, not shown: a dimerising Fc or GST, Wild-type control; also called WT CD80-IgV-Fc) VIHVTKEVKEVATLSCGHNVSVEELAQTRIYWQKEKKMVLTMMSGDMNIWPEYKNRTIFDITNNLSIVILALRPSDEGTYECVVLKYEKDAFKREHLAEVTLSVKAD" value_type="Fold change to WT CD80" units_symbol=fold reported_result=15.1
binder="CD80 IgV-Fc T13R/Q33L/E35D/M47L/V68M/L85M (Fc fusion, not shown: a dimerising Fc or GST) VIHVTKEVKEVARLSCGHNVSVEELAQTRIYWLKDKKMVLTMMSGDLNIWPEYKNRTIFDITNNLSIMILALRPSDEGTYECVVMKYEKDAFKREHLAEVTLSVKAD" value_type="Fold change to WT CD80" units_symbol=fold reported_result=0.1

Data origin, for the record: patent US20210130436A1
